Entries and their IC50
- Tested on: 8×TBD luciferase reporter (YAP) in HEK293T cells
- Protocol text: YAP Reporter Assay (8×TBD firefly luciferase reporter)
- Format: cell-based
- Test settings: Homo sapiens, HEK-293T, 24 h, read-out: Firefly Luciferase IC50 (μM)

- Compound: "C[C@@H](NC(=O)c1ccc2c(Oc3ccc(C(F)(F)F)cc3)cccc2c1)C1CN(CCO)C1 [Compound 135]"
  IC50: "0.1 to 1 µM"
- Compound: "CC(C)NC(=O)c1ccc2c(Oc3cccc(Cl)c3)cccc2c1 [Compound 2]"
  IC50: "< 0.1 µM"
- Compound: "N#CCNC(=O)c1ccc2c(Oc3ccc(C(F)(F)F)cc3)cccc2c1 [Compound 22]"
  IC50: "< 0.1 µM"
- Compound: "N#CCCNC(=O)c1ccc2c(Oc3ccc(C(F)(F)F)cc3)cccc2c1 [Compound 23]"
  IC50: "< 0.1 µM"
- Compound: "CC(C)NC(=O)c1cnc2c(Oc3ccc(C(F)(F)F)cc3)cccc2c1 [Compound 13]"
  IC50: "< 0.1 µM"
- Compound: "CC(C)NC(=O)c1ccc2c(Oc3ccc(Cl)c(Cl)c3)cccc2c1 [Compound 3]"
  IC50: "< 0.1 µM"
- Compound: "COc1cc(Oc2ccc(C(F)(F)F)cc2)c2ncc(C(=O)NC(C)C)cc2c1 [Compound 113]"
  IC50: "< 0.1 µM"
- Compound: "C[C@H](NC(=O)c1ccc2c(Oc3ccc(C(F)(F)F)cc3)cccc2c1)C1CN(CCO)C1 [Compound 128]"
  IC50: "0.1 to 1 µM"

Consider now this further compound.
(Q) Indicate its recorded IC50; the compound in question is CC(C)NC(=O)c1ccc2c(Oc3ccc(Cl)cc3)cccc2c1 [Compound 1]
(A) < 0.1 µM
